- ASSAY DETAILS: Lethal effect was determined in mice
- Assay type: ADME, organism-based
- TEST PARAMETERS: mouse, in vivo
# note: exactly 300 mg/kg is not below, so it is rule not met; use rule met for LD50 strictly under it

COMPOUND: CCCCNCC(=O)Nc1cccc2c1CN(C)CC2c1ccc(Cl)cc1 (configuration not stated)
CLASSIFICATION: rule not met

Task: Threshold test, LD50 < 300 mg/kg: CCNCC(=O)Nc1cccc2c1CN(C)CC2c1ccc(C)cc1 (configuration not stated)
Output: rule not met

Task: Threshold test, LD50 < 300 mg/kg: CCCCNC(=O)Nc1cccc2c1CN(C)CC2c1ccc(Cl)cc1 (configuration not stated)
Output: rule not met

Task: Threshold test, LD50 < 300 mg/kg: CCCNC(=O)Nc1cccc2c1CN(C)CC2c1ccccc1 (configuration not stated)
Output: rule not met

Task: Threshold test, LD50 < 300 mg/kg: CCNCC(=O)Nc1cccc2c1CN(C)CC2c1ccc(Cl)cc1 (configuration not stated)
Output: rule not met

Task: Threshold test, LD50 < 300 mg/kg: CCCCNC(=O)Nc1cccc2c1CN(C)CC2c1ccc(C)cc1 (configuration not stated)
Output: rule not met

Task: Threshold test, LD50 < 300 mg/kg: CN1Cc2c(NC(=O)CCl)cccc2C(c2ccccc2)C1 (configuration not stated)
Output: rule met

Task: Threshold test, LD50 < 300 mg/kg: CN1Cc2c(N)cccc2C(c2ccc(F)cc2)C1 (configuration not stated)
Output: rule met

Task: Threshold test, LD50 < 300 mg/kg: CN1Cc2c(N)cccc2C(c2ccccc2)C1 (configuration not stated) [NOMIFENSINE]
Output: rule not met

Task: Threshold test, LD50 < 300 mg/kg: CCOC(=O)Nc1cccc2c1CN(C)CC2c1ccc(F)cc1 (configuration not stated)
Output: rule met

---

- STUDY SYSTEM: Sodium-dependent dopamine transporter (Rattus norvegicus)
- ASSAY DETAILS: Inhibitory activity against inducing stereotypy in rats
- Type: functional
Each item that follows carries a reported log10(EDmin).
Parameter value (number): base-10 log of EDmin in mg/kg.

Task: Which measured log10(EDmin) value corresponds to CN1Cc2c(NC(=O)CN3CCOCC3)cccc2C(c2ccccc2)C1 (stereo not given) ?
Output: 1.92

Task: Which measured log10(EDmin) value corresponds to CCNCC(=O)Nc1cccc2c1CN(C)CC2c1ccc(Cl)cc1 (stereo not given) ?
Output: 1.52

Task: Which measured log10(EDmin) value corresponds to CN1Cc2c(NC(=O)CCCl)cccc2C(c2ccccc2)C1 (stereo not given) ?
Output: 1.31

---

- ASSAY DETAILS: Lethal effect was determined in mice
- Type: ADME, organism-based
- TEST PARAMETERS: mouse, in vivo
RECORDED METRIC: LD50 (mg/kg)
Your answer is read as mg/kg, so omit the unit and give the number.

Worked set:
COMPOUND: CCCCOC(=O)Nc1cccc2c1CN(C)CC2c1ccccc1 (configuration not stated)
LD50 / mg/kg: 180

COMPOUND: CCNC(=O)Nc1cccc2c1CN(C)CC2c1ccccc1 (configuration not stated)
LD50 / mg/kg: 290

COMPOUND: CCNCC(=O)Nc1cccc2c1CN(C)CC2c1ccccc1 (configuration not stated)
LD50 / mg/kg: 320

COMPOUND: CCCCNC(=O)Nc1cccc2c1CN(C)CC2c1ccccc1 (configuration not stated)
LD50 / mg/kg: 430

COMPOUND: CN1Cc2c(NC(=O)CN3CCCC3)cccc2C(c2ccccc2)C1 (configuration not stated)
LD50 / mg/kg: 380

COMPOUND: CCOC(=O)Nc1cccc2c1CN(C)CC2c1ccc(Cl)cc1 (configuration not stated)
LD50 / mg/kg: 830

Turning to the following compound.
Task: Which measured LD50 value corresponds to CN1Cc2c(N)cccc2C(c2ccc(Cl)cc2)C1 (configuration not stated) ?
Output: 240

---

- Species: Felis catus
- ASSAY DETAILS: Compound was tested for potentiating the dopamine-induced hypotension in cats.
- Format: functional
Output: class label from EDmin. Mapping: low: < 1 mg/kg; moderate: ≥ 1 mg/kg and < 3 mg/kg; high: ≥ 3 mg/kg

COMPOUND: CN1Cc2c(NC(=O)OCCCl)cccc2C(c2ccccc2)C1 (centres undefined)
CLASSIFICATION: moderate
--
COMPOUND: CCOC(=O)Nc1cccc2c1CN(C)CC2c1ccc(F)cc1 (centres undefined)
CLASSIFICATION: moderate
--
COMPOUND: CCCNC(=O)Nc1cccc2c1CN(C)CC2c1ccccc1 (centres undefined)
CLASSIFICATION: high

Task: Lab log: CC(C)c1ccc(C2CN(C)Cc3c(N)cccc32)cc1 (centres undefined) — assign EDmin category
Output: moderate

Task: Lab log: CCNCC(=O)Nc1cccc2c1CN(C)CC2c1ccc(C)cc1 (centres undefined) — assign EDmin category
Output: moderate

Task: Lab log: CCNC(=O)Nc1cccc2c1CN(C)CC2c1ccccc1 (centres undefined) — assign EDmin category
Output: high

Task: Lab log: CN1Cc2c(NC(=O)CN3CCCCC3)cccc2C(c2ccccc2)C1 (centres undefined) — assign EDmin category
Output: high

Task: Lab log: CCCCNCCC(=O)Nc1cccc2c1CN(C)CC2c1ccccc1 (centres undefined) — assign EDmin category
Output: high

Task: Lab log: CCCCNC(=O)Nc1cccc2c1CN(C)CC2c1ccc(C)cc1 (centres undefined) — assign EDmin category
Output: high

---

- ASSAY DETAILS: Lethal effect was determined in mice
- Type: ADME, organism-based
- TEST PARAMETERS: mouse, in vivo
RECORDED METRIC: LD50 (mg/kg)
Your answer is read as mg/kg, so omit the unit and give the number.

COMPOUND: CN1Cc2c(NC(=O)CN3CCCCC3)cccc2C(c2ccccc2)C1 (configuration not stated)
UNIT NAME: mg/kg
MEASURED RESULT: 520

Task: Which measured LD50 value corresponds to CN1Cc2c(NC(=O)CN3CCOCC3)cccc2C(c2ccccc2)C1 (configuration not stated) ?
Output: 295

Task: Which measured LD50 value corresponds to CC(C)NCCC(=O)Nc1cccc2c1CN(C)CC2c1ccccc1 (configuration not stated) ?
Output: 900

Task: Which measured LD50 value corresponds to CCCCNCC(=O)Nc1cccc2c1CN(C)CC2c1ccc(C)cc1 (configuration not stated) ?
Output: 320

Task: Which measured LD50 value corresponds to CN1Cc2c(NC(=O)OCCCl)cccc2C(c2ccccc2)C1 (configuration not stated) ?
Output: 160

Task: Which measured LD50 value corresponds to CC(C)c1ccc(C2CN(C)Cc3c(N)cccc32)cc1 (configuration not stated) ?
Output: 1100

Task: Which measured LD50 value corresponds to CCOC(=O)Nc1cccc2c1CN(C)CC2c1ccccc1 (configuration not stated) ?
Output: 71

Task: Which measured LD50 value corresponds to CN1Cc2c(NC(=O)CCCl)cccc2C(c2ccccc2)C1 (configuration not stated) ?
Output: 89

Task: Which measured LD50 value corresponds to CCCCNCC(=O)Nc1cccc2c1CN(C)CC2c1ccccc1 (configuration not stated) ?
Output: 240

Task: Which measured LD50 value corresponds to Cc1ccc(C2CN(C)Cc3c(N)cccc32)cc1 (configuration not stated) ?
Output: 800

Task: Which measured LD50 value corresponds to CCNCCC(=O)Nc1cccc2c1CN(C)CC2c1ccccc1 (configuration not stated) ?
Output: 720

---

- Test system: Mus musculus
- ASSAY DETAILS: Inhibition of tetrabenazine ptosis in mice (sc).
- Assay type: functional
Each item that follows carries a reported ED50.
Your answer is read as mg/kg, so omit the unit and give the number.

Worked set:
COMPOUND: CCCCNC(=O)Nc1cccc2c1CN(C)CC2c1ccc(Cl)cc1 (stereo not given)
RECORDED METRIC: ED50
MEASURED RESULT: 15

COMPOUND: CCNCC(=O)Nc1cccc2c1CN(C)CC2c1ccc(Cl)cc1 (stereo not given)
RECORDED METRIC: ED50
MEASURED RESULT: 6.4

COMPOUND: CCOC(=O)Nc1cccc2c1CN(C)CC2c1ccc(Cl)cc1 (stereo not given)
RECORDED METRIC: ED50
MEASURED RESULT: 0.6

COMPOUND: CN1Cc2c(NC(=O)OCc3ccccc3)cccc2C(c2ccccc2)C1 (stereo not given)
RECORDED METRIC: ED50
MEASURED RESULT: 16

COMPOUND: CCCCNC(=O)Nc1cccc2c1CN(C)CC2c1ccccc1 (stereo not given)
RECORDED METRIC: ED50
MEASURED RESULT: 23

Task: Which measured ED50 value corresponds to CC(C)c1ccc(C2CN(C)Cc3c(N)cccc32)cc1 (stereo not given) ?
Output: 68

Task: Which measured ED50 value corresponds to CCNCC(=O)Nc1cccc2c1CN(C)CC2c1ccc(C)cc1 (stereo not given) ?
Output: 5.6

Task: Which measured ED50 value corresponds to CCCCNCCC(=O)Nc1cccc2c1CN(C)CC2c1ccccc1 (stereo not given) ?
Output: 74
